Source listed as patent US20190144535A1.

# System under test: human IL-1β (human, UniProt P01584 117-269)
# Test details: cell-based or functional assay
Assay endpoint: EC50, inhibition of human IL-1β-induced IL-6 secretion by MRC5 cells (pM)
Kindly answer with a numeric value in pM, unit omitted.

Known results for binders:
IgG1 2H (antibody, V domains shown, also called IgG 2H; IgG clone 2H) VH: QVQLQQWGAGLLKPSETLSLTCAVYGGSFSDYYWSWIRQPPGKGLEWIGEIDHSGSTNYNPSLKSRVTISVDTSRNQFSLSLSSVTAADTAVYYCARASPSSGWTLDYWGQGTLVTVSS VL: QSVLTQPPSVSVSPGQTASITCSGDKLGDKFAFWYQQKPGQSPVLVIYLDNKRPSGIPERFSGSNSGNTATLTISGTQALDEADYYCQAWDSNIEVFGGGTKLTVLG
148
P2D7 (antibody, V domains shown, claim 45 pairs 17 with 14); also called matured Ig P2D7) VH: QVQLQQWGAGLLKPSETLSLTCAVYGGSFSDYYWSWIRQPPGKGLEWIGEIDHSGSTNYNPSLKSRVTISVDTSRNQFSLSLSSVTAADTAVYYCARASPSSGWTLDYWGQGTLVTVSS VL: QSVLTQPPSVSVSPGQTASITCSGDKLGDKFAFWYQQKPGQSPVLVIYLDNKRPSGIPERFSGSNSGNTATLTISGTQALDEADYYCYAWADTYEVFGGGTK
6.53
P2D8 (antibody, V domains shown, also called matured Ig P2D8) VH: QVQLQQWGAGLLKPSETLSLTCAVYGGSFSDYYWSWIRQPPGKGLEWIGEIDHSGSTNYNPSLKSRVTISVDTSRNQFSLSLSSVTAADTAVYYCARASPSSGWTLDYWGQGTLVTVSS VL: QSVLTQPPSVSVSPGQTASITCSGDKLGDKFAFWYQQKPGQSPVLVIYLDNKRPSGIPERFSGSNSGNTATLTISGTQALDEADYYCEAWADTYEVFGGGTKLTVLG
11
P1D9 (antibody, V domains shown, also called matured Ig P1D9) VH: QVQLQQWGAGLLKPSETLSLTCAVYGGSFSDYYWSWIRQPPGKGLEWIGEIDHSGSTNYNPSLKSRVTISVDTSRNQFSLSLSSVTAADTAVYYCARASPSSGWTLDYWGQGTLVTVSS VL: QSVLTQPPSVSVSPGQTASITCSGDKLGDKFAFWYQQKPGQSPVLVIYLDNKRPSGIPERFSGSNSGNTATLTISGTQALDEADYYCYAWDNAYEVFGGGTKLTVLG
20.7
P1H8 (antibody, V domains shown, also called matured Ig P1H8) VH: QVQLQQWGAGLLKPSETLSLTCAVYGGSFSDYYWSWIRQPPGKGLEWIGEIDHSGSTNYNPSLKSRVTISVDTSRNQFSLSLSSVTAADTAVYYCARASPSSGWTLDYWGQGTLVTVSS VL: QSVLTQPPSVSVSPGQTASITCSGDKLGDKFAFWYQQKPGQSPVLVIYLDNKRPSGIPERFSGSNSGNTATLTISGTQALDEADYYCQAWADSFEVFGGGTKLTVLG
21.5

Now, please, on to the next binder.
Recorded EC50, inhibition of human IL-1β-induced IL-6 secretion by MRC5 cells for P1E8 (antibody, V domains shown) VH: QVQLQQWGAGLLKPSETLSLTCAVYGGSFSDYYWSWIRQPPGKGLEWIGEIDHSGSTNYNPSLKSRVTISVDTSKNQFSLKLSSVTAADTAVYYCARASPSSGWTLDYWGQGTLVTVSS VL: QSVLTQPPSVSVSPGQTASITCSGDKLGDKFAFWYQQKPGQSPVLVIYLDNKRPSGIPERFSGSNSGNTATLTISGTQALDEADYYCEAWDAAAEVFGGGTKLTVLG , please?
45.3
